Tested on: native geph
MEASUREMENT NOTES: µSPOT peptide microarray binding assay with native geph from mouse brain lysate
STATED CONDITIONS: µSPOT peptide microarray, GlyRβ full positional scan, native geph from mouse brain lysate; intensity normalised to wild-type sequence DLRSNDFSIVGSLPR (=1)
Listed here: items and their measured Native geph Binding Intensity [norm.].
Respond numerically; units are norm. and should not be typed.

{"SEQ TEXT": "DLRSNYFSIVGSLPR [GlyRβ_Full_Positional_Scan_109]", "Native geph Binding Intensity [norm.] / norm.": 0.38}
{"SEQ TEXT": "DLRSNDFSTVGSLPR [GlyRβ_Full_Positional_Scan_176, GlyR β 414-428 variant I422T]", "Native geph Binding Intensity [norm.] / norm.": 0.31}
{"SEQ TEXT": "DLRSNRFSIVGSLPR [GlyRβ_Full_Positional_Scan_112]", "Native geph Binding Intensity [norm.] / norm.": 0.36}

Sample DLRSNDFSWVGSLPR [GlyRβ_Full_Positional_Scan_168, GlyR β 414-428 variant I422W] — what was its Native geph Binding Intensity [norm.]? 0.2

Any idea what Native geph Binding Intensity [norm.] was measured for DLRSNDFSYVGSLPR [GlyRβ_Full_Positional_Scan_169, GlyR β 414-428 variant I422Y] ? 0.48

I am curious: what Native geph Binding Intensity [norm.] value has been reported for DLRSNDFSIVVSLPR [GlyRβ_Full_Positional_Scan_206, GlyR β 414-428 variant G424V] ? 0.17

Reported Native geph Binding Intensity [norm.], sequence DLRSNDFSIVDSLPR [GlyRβ_Full_Positional_Scan_210, GlyR β 414-428 variant G424D] : ____ 0.15

# get_value(readout='Native geph Binding Intensity [norm.]', item= DLRSNDKSIVGSLPR [GlyRβ_Full_Positional_Scan_134, GlyR β 414-428 variant F420K] ) 0.3

// provenance: paper PMC7753147
